Biological target: purified human autoBACE-2 (Homo sapiens (Human), UniProt Q9Y5Z0)
Sequence (Q9Y5Z0 63-473 limits assumed): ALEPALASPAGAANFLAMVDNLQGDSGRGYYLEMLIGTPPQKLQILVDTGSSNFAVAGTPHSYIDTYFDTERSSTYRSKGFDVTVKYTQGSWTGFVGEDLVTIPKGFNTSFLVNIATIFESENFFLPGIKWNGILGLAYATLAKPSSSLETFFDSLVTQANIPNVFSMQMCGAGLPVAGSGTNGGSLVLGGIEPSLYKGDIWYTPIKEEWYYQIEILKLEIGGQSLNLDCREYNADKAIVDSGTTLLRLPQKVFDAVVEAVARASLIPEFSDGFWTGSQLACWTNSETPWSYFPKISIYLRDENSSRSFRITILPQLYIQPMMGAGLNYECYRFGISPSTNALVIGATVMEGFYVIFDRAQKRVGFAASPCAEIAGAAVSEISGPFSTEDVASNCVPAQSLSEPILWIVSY
Test: BACE-2 Assay (BACE-HTRF assay)
Type: biochemical
Conditions: BACE2 Ki (nM)
Ki overview

[
  {
    "molecule": "COc1cnc(C(=O)Nc2ccc(F)c([C@]34COC(CF)[C@H]3S(=O)(=O)C(C)(C)C(=N)N4)c2)cn1 (single isomer, unassigned) [Example 4h]",
    "Ki": "476 nM"
  },
  {
    "molecule": "COc1cnc(C(=O)Nc2ccc(F)c([C@]34COC(CF)[C@H]3S(=O)(=O)C(C)(C)C(=N)N4)c2)cn1 (single isomer, unassigned) [Example 4e]",
    "Ki": "11 nM"
  },
  {
    "molecule": "C[C@@]1(c2ccc(F)cc2)C(=N)N[C@@]2(c3cc(NC(=O)c4ccc(F)cn4)ccc3F)COC[C@H]2S1(=O)=O",
    "Ki": "9 nM"
  }
]

---

Biological target: purified human autoBACE-2 (Homo sapiens (Human), UniProt Q9Y5Z0)
Test: BACE-2 Assay (BACE-HTRF assay)
Assay type: biochemical
Conditions: read-out: BACE2 Ki
observed_property: log10 Ki (log10 of the value in nM)

[
  {
    "molecule": "CC1(C)C(=N)N[C@@]2(c3cc(NC(=O)c4cnc(OCCF)cn4)ccc3F)COC[C@H]2S1(=O)=O [Example 1h]",
    "target_under_test": "purified human autoBACE-2 (Homo sapiens (Human), UniProt Q9Y5Z0)",
    "log10 Ki": 1.26
  },
  {
    "molecule": "CC1(C)C(=N)N[C@@]2(c3cc(NC(=O)c4ccc(Cl)cn4)ccc3F)COC[C@H]2S1(=O)=O [Example 1b]",
    "target_under_test": "purified human autoBACE-2 (Homo sapiens (Human), UniProt Q9Y5Z0)",
    "log10 Ki": 0.00
  },
  {
    "molecule": "CO[C@@H](C)C(=O)Nc1ccc(F)c([C@]23COC[C@H]2S(=O)(=O)C(C)(C)C(=N)N3)c1 [Example 1o]",
    "target_under_test": "purified human autoBACE-2 (Homo sapiens (Human), UniProt Q9Y5Z0)",
    "log10 Ki": 1.62
  },
  {
    "molecule": "CC1(C)C(=N)N[C@@]2(c3cc(NC(=O)c4ccc(F)cn4)ccc3F)COC[C@H]2S1(=O)=O [Example 1a]",
    "target_under_test": "purified human autoBACE-2 (Homo sapiens (Human), UniProt Q9Y5Z0)",
    "log10 Ki": 0.00
  },
  {
    "molecule": "COc1cnc(C(=O)Nc2ccc(F)c([C@]34COC[C@H]3S(=O)(=O)C(C)(C)C(=N)N4)c2)cn1 [Example 1d]",
    "target_under_test": "purified human autoBACE-2 (Homo sapiens (Human), UniProt Q9Y5Z0)",
    "log10 Ki": 0.70
  },
  {
    "molecule": "C[C@]1(C2CC2)C(=N)N[C@@]2(c3cc(NC(=O)c4ccc(F)cn4)ccc3F)COC[C@H]2S1(=O)=O [Example 13b]",
    "target_under_test": "purified human autoBACE-2 (Homo sapiens (Human), UniProt Q9Y5Z0)",
    "log10 Ki": 1.04
  },
  {
    "molecule": "C[C@@]1(C2CC2)C(=N)N[C@@]2(c3cc(NC(=O)c4ccc(F)cn4)ccc3F)COC[C@H]2S1(=O)=O [Example 13a]",
    "target_under_test": "purified human autoBACE-2 (Homo sapiens (Human), UniProt Q9Y5Z0)",
    "log10 Ki": 0.78
  }
]
